test system: Calf thymus DNA; assay: CT-DNA binding required to produce a 50% drop in fluorescence of DNA-bound ethidium.; assay type: nucleic-acid assay; conditions: Bos taurus
attributeMeasured: log10(C50) (log10 of the value in µM)

[[record]]
smilesinput = "CN(C)CCn1c(=O)c2ccc3c4c(nn3CCN(C)C)c3ccccc3n(c1=O)c24"
experimentalsystem = "Calf thymus DNA"
value = -2.74

[[record]]
smilesinput = "CCN(CC)CCn1c(=O)c2ccc3c4c(nn3CCN(CC)CC)c3ccccc3n(c1=O)c24"
experimentalsystem = "Calf thymus DNA"
value = -1.29

[[record]]
smilesinput = "COc1ccc2c(c1)c1nn(CCCN(C)C)c3ccc4c(=O)n(CCN(C)C)c(=O)n2c4c13"
experimentalsystem = "Calf thymus DNA"
value = -1.43

[[record]]
smilesinput = "CN(C)CCCn1nc2c3ccccc3n3c(=O)n(CCN(C)C)c(=O)c4ccc1c2c43"
experimentalsystem = "Calf thymus DNA"
value = -0.92

[[record]]
smilesinput = "CN(C)CCn1c(=O)c2ccc3c4c(nn3CCN3CCCCC3)c3cc(N)ccc3n(c1=O)c24"
experimentalsystem = "Calf thymus DNA"
value = -2.22

[[record]]
smilesinput = "CN(C)CCn1c(=O)c2ccc3c4c(nn3CCN3CCCC3)c3cc([N+](=O)[O-])ccc3n(c1=O)c24"
experimentalsystem = "Calf thymus DNA"
value = -1.32

[[record]]
smilesinput = "CN(C)CCn1c(=O)c2ccc3c4c(nn3CCN3CCCC3)c3ccccc3n(c1=O)c24"
experimentalsystem = "Calf thymus DNA"
value = -1.31

[[record]]
smilesinput = "CN(C)CCn1c(=O)c2ccc3c4c(nn3CCN(C)C)c3cc([N+](=O)[O-])ccc3n(c1=O)c24"
experimentalsystem = "Calf thymus DNA"
value = -1.15

[[record]]
smilesinput = "CN(C)CCCn1nc2c3cc(O)ccc3n3c(=O)n(CCN(C)C)c(=O)c4ccc1c2c43"
experimentalsystem = "Calf thymus DNA"
value = -2.18


====

test system: 786-0; test: Percent growth of NCI cell line, renal: 786-0 exposed for 48 hr at 10e-6 concentration; assay type: functional, Homo sapiens
attributeMeasured: Growth (%)

[[record]]
smilesinput = "CN(C)CCn1c(=O)c2ccc3c4c(nn3CCN(C)C)c3cc(N)ccc3n(c1=O)c24"
unitssymbol = "%"
value = -44

[[record]]
smilesinput = "CN(C)CCn1c(=O)c2ccc3c4c(nn3CCN(C)C)c3cc([N+](=O)[O-])ccc3n(c1=O)c24"
unitssymbol = "%"
value = -25

[[record]]
smilesinput = "COc1ccc2c(c1)c1nn(CCN(C)C)c3ccc4c(=O)n(CCN(C)C)c(=O)n2c4c13"
unitssymbol = "%"
value = -26

[[record]]
smilesinput = "CN(C)CCn1c(=O)c2ccc3c4c(nn3CCN(C)C)c3cc(O)ccc3n(c1=O)c24"
unitssymbol = "%"
value = -11

[[record]]
smilesinput = "CN(C)CCn1c(=O)c2ccc3c4c(nn3CCN(C)C)c3ccccc3n(c1=O)c24"
unitssymbol = "%"
value = -42

[[record]]
smilesinput = "COc1ccc2c(c1)c1nn(CCN3CCCCC3)c3ccc4c(=O)n(CCN(C)C)c(=O)n2c4c13"
unitssymbol = "%"
value = -41

